These measurements were taken from ChEMBL document CHEMBL3885881.

- Species on record: Rattus norvegicus
- Test Details: DrugMatrix - Regimen: Daily Repeat
- Type: toxicity, organism-based, Sprague-Dawley
- Design: regimen Daily Repeat, gender Male, age 6-8 weeks
- Condition Description: in vivo, po, 0 mg/kg, 72 h, tissue Blood, route oral GAVAGE, dose level Control, time 3 day, vehicle .5 % CMC
Assay Endpoint: ABSOLUTE EOSINOPHIL (CELLS/uL)
Number only, in CELLS/uL; omit the unit.

These solved cases illustrate the format of a correct answer.
CCC[C@@H]1C[C@@H](C(=O)N[C@@H]([C@H]2O[C@H](SC)[C@H](O)[C@@H](O)[C@H]2O)[C@@H](C)O)N(C)C1
0
CC(/C=C1\SC(=S)N(CC(=O)O)C1=O)=C\c1ccccc1
0

Per the record, CCc1ccc(C(=O)C(C)CN2CCCCC2)cc1 (stereo not drawn) has ABSOLUTE EOSINOPHIL of 284.5

Per the record, C=C1CC[C@H](O)C/C1=C/C=C1\CCC[C@]2(C)[C@@H]([C@H](C)/C=C/[C@H](C)C(C)C)CC[C@@H]12 has ABSOLUTE EOSINOPHIL of 8.83

Per the record, COC(=O)c1ccc(O)cc1 has ABSOLUTE EOSINOPHIL of 0

Per the record, Cc1c(-c2ccccc2)oc2c(C(=O)OCCN3CCCCC3)cccc2c1=O [FLAVOXATE] has ABSOLUTE EOSINOPHIL of 32.5

Per the record, CN1CCC[C@@H]1CCO[C@](C)(c1ccccc1)c1ccc(Cl)cc1 has ABSOLUTE EOSINOPHIL of 0

Per the record, Brc1ccccc1 has ABSOLUTE EOSINOPHIL of 15.17
